Target or system GCN2 (Homo sapiens (Human), UniProt Q9P2K8): recorded IC50 listed per item.

Problem: Find the recorded IC50 belonging to "Cc1cnc(Nc2cc(C)n(C)n2)nc1-c1c[nH]c2c(NC(=O)CN3CC[C@H](Oc4cc(F)cc(F)c4)C3)cccc12" and report it.
Result: 100 to 1000 nM

Problem: // next record "COC(=O)c1ccccc1-c1cccc2c1CN(c1cccc3c(-c4nc(Nc5cc(C)n(C)n5)ncc4C)c[nH]c13)C2=O"
Result: 100 to 1000 nM

Problem: // next record "Cc1cnc(Nc2cc(C)n(C)n2)nc1-c1c[nH]c2c(NC(=O)CN3CC[C@H](Oc4ncc(F)cn4)C3)cccc12"
Result: 10 to 100 nM

Problem: // next record "Cc1cnc(Nc2cc(C)n(C)n2)nc1-c1c[nH]c2c(NC(=O)CN3CC[C@@H](Oc4ccncc4)C3)cccc12"
Result: 10 to 100 nM

Problem: // next record "Cc1cnc(Nc2cc(C)n(C)n2)nc1-c1c[nH]c2c(N3Cc4c(NC(=O)Cc5ccccc5)cccc4C3=O)cccc12"
Result: < 10 nM

Problem: // next record "Cc1cnc(Nc2cc(C)n(C)n2)nc1-c1c[nH]c2c(NC(=O)CN3CC[C@H](Oc4ccnc(N5CCCC5)n4)C3)cccc12"
Result: 10 to 100 nM

Problem: // next record "Cc1cnc(Nc2cc(C)n(C)n2)nc1-c1c[nH]c2c(NC(=O)CN3CC[C@H](Oc4nccc(N5CCCC5)n4)C3)cccc12"
Result: < 10 nM

Problem: // next record "Cc1cnc(Nc2cc(C)n(C)n2)nc1-c1c[nH]c2c(NC(=O)CN3CC[C@H](Oc4ncc(F)c(N(C)c5ccccc5)n4)C3)cccc12"
Result: 10 to 100 nM

Problem: // next record "Cc1cnccc1-c1cccc2c1CN(c1cccc3c(-c4nc(Nc5cc(C)n(C)n5)ncc4C)c[nH]c13)C2=O"
Result: < 10 nM

Problem: // next record "Cc1cnc(Nc2cc(C)n(C)n2)nc1-c1c[nH]c2c(NC(=O)CN3CC[C@H](C(=O)N4CCOCC4)C3)cccc12"
Result: 100 to 1000 nM

Problem: // next record "Cc1cnc(Nc2cc(C)n(C)n2)nc1-c1c[nH]c2c(N3Cc4c(-c5cncc(F)c5)ccc(F)c4C3=O)cccc12"
Result: < 10 nM

Problem: // next record "CCNc1nccc(O[C@H]2CCN(CC(=O)Nc3cccc4c(-c5nc(Nc6cc(C)n(C)n6)ncc5C)c[nH]c34)C2)n1"
Result: < 10 nM

Problem: // next record "Cc1cnc(Nc2cc(C)n(C)n2)nc1-c1c[nH]c2c(NC(=O)CN3CC[C@H](Oc4cc(C5=CCOCC5)ncn4)C3)cccc12"
Result: 10 to 100 nM

Problem: // next record "Cc1cnc(Nc2cc(C)n(C)n2)nc1-c1c[nH]c2c(NC(=O)CN3CC=C(c4cnn(C)c4)CC3)cccc12"
Result: 100 to 1000 nM

Problem: // next record "Cc1cnc(Nc2cc(C)n(C)n2)nc1-c1c[nH]c2c(NC(=O)CN3CC[C@H](Oc4cccc(F)c4)C3)cccc12"
Result: 100 to 1000 nM

Problem: // next record "CNc1nccc(O[C@H]2CCN(CC(=O)Nc3cccc4c(-c5nc(Nc6cc(C)n(C)n6)ncc5C)c[nH]c34)C2)n1"
Result: < 10 nM

Problem: // next record "Cc1cnc(Nc2cc(C)n(C)n2)nc1-c1c[nH]c2c(NC(=O)CN3CC[C@H](Oc4ccc(F)cc4)C3)cccc12"
Result: 100 to 1000 nM

Problem: // next record "Cc1cnc(Nc2cc(C)n(C)n2)nc1-c1c[nH]c2c(NC(=O)CN3C[C@@H](Oc4ccnc(NC5CC5)n4)C[C@H]3CO)cccc12"
Result: < 10 nM

Problem: // next record "Cc1cnc(Nc2cc(C)n(C)n2)nc1-c1c[nH]c2c(N3Cc4c(/C=C/C(=O)NC5CC5)cccc4C3=O)cccc12"
Result: < 10 nM

Problem: // next record "Cc1cnc(Nc2cc(C)n(C)n2)nc1-c1c[nH]c2c(NC(=O)CN3CC[C@H](Oc4ccnc(NCCCO)n4)C3)cccc12"
Result: < 10 nM

Problem: // next record "Cc1cnc(Nc2cc(C)n(C)n2)nc1-c1c[nH]c2c(N3C(=O)c4cccc(Br)c4C3=O)cccc12"
Result: < 10 nM

Problem: // next record "Cc1cnc(Nc2cc(C)n(C)n2)nc1-c1c[nH]c2c(N3Cc4ccc(N)cc4C3=O)cccc12"
Result: < 10 nM

Problem: // next record Cc1cnc(Nc2cc(C)n(C)n2)nc1-c1c[nH]c2c(N3Cc4c(NC(=O)C5CCCOC5)cccc4C3=O)cccc12 (centres unmarked)
Result: < 10 nM

Problem: // next record "COc1ccc(-c2cccc3c2CN(c2cccc4c(-c5nc(Nc6cc(C)n(C)n6)ncc5C)c[nH]c24)C3=O)cn1"
Result: 10 to 100 nM

Problem: // next record "CC(=O)N1CC=C(c2cccc3c2CN(c2cccc4c(-c5nc(Nc6cc(C)n(C)n6)ncc5C)c[nH]c24)C3=O)CC1"
Result: < 10 nM

Problem: // next record "COc1cc(-c2ccc(F)c3c2CN(c2cccc4c(-c5nc(Nc6cc(C)n(C)n6)ncc5C)c[nH]c24)C3=O)ccn1"
Result: < 10 nM
